# TEST_SYSTEM: human serum albumin (HSA) (Homo sapiens, UniProt P02768)
# Construct: purchased Sigma-Aldrich Co
# Sequence (P02768 25-609): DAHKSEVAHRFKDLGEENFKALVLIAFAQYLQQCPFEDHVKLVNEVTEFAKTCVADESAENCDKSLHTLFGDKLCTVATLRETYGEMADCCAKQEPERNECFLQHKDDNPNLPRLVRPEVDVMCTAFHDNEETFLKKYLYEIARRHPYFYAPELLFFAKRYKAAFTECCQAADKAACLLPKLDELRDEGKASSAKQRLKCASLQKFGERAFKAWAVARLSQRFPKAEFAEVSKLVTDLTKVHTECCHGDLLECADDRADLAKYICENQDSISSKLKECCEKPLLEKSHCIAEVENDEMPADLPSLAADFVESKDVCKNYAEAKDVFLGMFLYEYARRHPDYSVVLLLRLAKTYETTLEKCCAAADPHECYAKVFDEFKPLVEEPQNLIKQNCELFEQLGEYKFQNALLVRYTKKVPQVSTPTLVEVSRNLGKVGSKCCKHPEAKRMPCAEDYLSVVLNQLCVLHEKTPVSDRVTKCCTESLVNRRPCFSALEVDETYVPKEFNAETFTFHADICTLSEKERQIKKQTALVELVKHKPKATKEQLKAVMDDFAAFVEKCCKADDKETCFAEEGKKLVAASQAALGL
# TEST_PROTOCOL: Albumin tryptophan fluorescence quenching
# Format: binding
# CONDITION_DETAILS: % of the initial HSA fluorescence remaining, λem 341 nm
# Protocol: The interaction between complexes 1–4 and albumins was investigated by recording the tryptophan fluorescence emission spectra and monitoring the quenching induced by incremental amounts of the complexes. For these experiments, albumins ([…]) were prepared in buffer solution (150 mM NaCl and 15 mM trisodium citrate at pH = 7) and their fluorescence emission spectra were recorded in the range 300—500 nm for λexcitation = 295 nm. […]
Exam item: assign Satisfied to entries whose relative fluorescence intensity of HSA (I/Io, %), final is below 20% and Not satisfied to entries at or above 20%. Note that a value of exactly 20% receives Not satisfied.

[in] Is the reported relative fluorescence intensity of HSA (I/Io, %), final for C[O-].C[O-].Cc1ccc2ccc3ccc(C)nc3c2n1.Cc1ccc2ccc3ccc(C)nc3c2n1.O=C([O-])c1ccccc1Nc1ccc([N+](=O)[O-])cc1.O=C([O-])c1ccccc1Nc1ccc([N+](=O)[O-])cc1.[Co+2].[Co+2] [Complex 4, [Co2(4′–NO2–fen)2(μ–CH3O)2(neoc)2]] strictly below 20%?
[out] Satisfied

[in] Is the reported relative fluorescence intensity of HSA (I/Io, %), final for O=C([O-])c1ccccc1Nc1ccc([N+](=O)[O-])cc1.O=C([O-])c1ccccc1Nc1ccc([N+](=O)[O-])cc1.[Co+2].c1ccc(Nc2ccccn2)nc1 [Complex 2, [Co(4′–NO2–fen)2(bipyam)]] strictly below 20%?
[out] Not satisfied

[in] Is the reported relative fluorescence intensity of HSA (I/Io, %), final for O=C(O)c1ccccc1Nc1ccc([N+](=O)[O-])cc1 [4′–NO2–fenH, 4′–nitrofenamic acid] strictly below 20%?
[out] Not satisfied

[in] Is the reported relative fluorescence intensity of HSA (I/Io, %), final for CO.CO.CO.CO.O=C([O-])c1ccccc1Nc1ccc([N+](=O)[O-])cc1.O=C([O-])c1ccccc1Nc1ccc([N+](=O)[O-])cc1.[Co+2] [Complex 1, [Co(4′–NO2–fen)2(MeOH)4]] strictly below 20%?
[out] Not satisfied

[in] Is the reported relative fluorescence intensity of HSA (I/Io, %), final for O=C([O-])c1ccccc1Nc1ccc([N+](=O)[O-])cc1.O=C([O-])c1ccccc1Nc1ccc([N+](=O)[O-])cc1.[Co+2].c1cnc2c(c1)ccc1cccnc12 [Complex 3, [Co(4′–NO2–fen)2(phen)]] strictly below 20%?
[out] Not satisfied
